# procedureSummary: yeast display, Sf9 membrane polyspecificity reagent, FACS + sequencing; frameworks hold sequencing errors
endpointName: polyreactivity (PSR sort gate)

Record excerpt, results attached:
# seqString, polyreactivity (PSR sort gate)
measured = [
    ("QVQLVESGGGLVQAGGSLSLSCAASGFILDYNTKGWYRQAPGKEREVVAAISSSGDTTYYADSVKGRFTISRDNAKYTVYLQMNSLKPEDTAVYYCAREYGDGYEYWVQGTQVTVSS", "low polyreactivity"),
    ("QVQLVESGGGLVQAGGSLRLSCAASGSTFTDYTMGWYRQAPGKERELVAVISQSGGSTYYADSVKGRFTISRDNAKNTVYLQMNSLKPEDTAVYYCAADPREDNQDRYYWGQGTQVTVSS", "high polyreactivity"),
    ("QVQLVESGGGLVQAGGSLRLSCAASVSIFDLYAMRWYIQAPGKERELVAAISWSDSRTYYADSVKGRFTISRDNATNTVYLQKNSLKPEDTAVYYCAADYRYPDNYGGYDYWGQGTQLTVSS", "low polyreactivity"),
    ("QVQLVESGGGLVQAGGSLRLSCAASGGTFPRNAMGWYRQAPGKERELVAAINQSGGRTYYADSVKGRFTISRDNAKNTVYLQLNSLKPEDTAVYYCAARVTYYRTYRGRQYGYWGQGTQVTVSS", "high polyreactivity"),
]

In the following, a different sequence is considered.
[Q] Determine its reported polyreactivity (PSR sort gate): QVQLVESGGGLVQAGGSLRLSCAASGRTFKYYAMGWYRQAPGKERELVATINYSGGGTYYADSVKRRFTSSRDNAKNTVYLQMNSLKPEDTAVYYCAATRYSFGPRRVDYWGQGTQVTVSS
[A] high polyreactivity
